Molecular target: furin, P09958;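 note: purified furin at 1:10 enzyme:substrate in 50 mM HEPES pH 7.5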
Sequence (P09958 whole entry): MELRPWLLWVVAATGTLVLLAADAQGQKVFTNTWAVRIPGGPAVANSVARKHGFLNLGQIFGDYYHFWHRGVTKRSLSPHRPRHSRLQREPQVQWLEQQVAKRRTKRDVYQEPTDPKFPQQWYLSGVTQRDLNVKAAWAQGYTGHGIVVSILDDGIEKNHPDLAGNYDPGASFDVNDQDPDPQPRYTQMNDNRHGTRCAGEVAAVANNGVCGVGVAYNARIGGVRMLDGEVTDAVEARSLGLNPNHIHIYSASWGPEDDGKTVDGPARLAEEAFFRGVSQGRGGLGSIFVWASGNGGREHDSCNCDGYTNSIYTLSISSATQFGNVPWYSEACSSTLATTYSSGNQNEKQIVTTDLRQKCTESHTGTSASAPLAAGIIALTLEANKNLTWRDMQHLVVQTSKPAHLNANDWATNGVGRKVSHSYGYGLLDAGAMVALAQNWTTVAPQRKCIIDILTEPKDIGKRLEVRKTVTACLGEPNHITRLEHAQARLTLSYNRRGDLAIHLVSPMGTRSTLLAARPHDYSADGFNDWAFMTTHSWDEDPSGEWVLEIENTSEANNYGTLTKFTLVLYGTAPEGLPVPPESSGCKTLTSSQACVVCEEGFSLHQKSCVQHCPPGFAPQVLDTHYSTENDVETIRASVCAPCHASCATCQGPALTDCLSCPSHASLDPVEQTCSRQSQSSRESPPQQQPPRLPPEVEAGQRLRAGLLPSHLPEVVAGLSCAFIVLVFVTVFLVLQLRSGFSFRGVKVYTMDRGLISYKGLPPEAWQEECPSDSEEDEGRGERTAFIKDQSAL
Assay: furin cleavage Z-score vs untreated control; higher = more cleavage, active = 3.5 or more, inactive = 1 or less, 8 variable residues between constant flanks
Conditions: 30 min
The other results are listed elsewhere or left out. How many sequences the whole screen found active is unknown.
Give your call using only these classes: t = active, f = inactive

Examples with answers:
// query Hi team, can someone confirm the assay call for CAERVVCCSMAGNASASA [HC2133] ?
// result f

// query So what was the verdict on CARKNRSHIPAGNASASA [FS-1730] in this test?
// result f

// query Could you check what this test reported for CAHPRRSRRSAGNASASA [FS-932] ?
// result t

// query Query: recorded result category for CARHLRSLEPAGNASASA [FS-2420] in this test
// result t

// query For CAVSKGWRLLAGNASASA [HC670] , what call appears in the results of this test?
// result f

New cases:
// query State the result this test recorded for CANPQRFDRIAGNASASA [FS-1039] .
// result f

// query What did the test return for CATHSRKKRQAGNASASA [FS-201] ?
// result t
